Recorded DC50 for the following compounds
Target: SMARCA4-HiBiT HeLa cells (protein which is expressed from the SMARCA4 gene) (Homo sapiens, UniProt P51532)
Construct: protein which is expressed from the SMARCA2 and SMARCA4 genes; host or cells: HeLa (SMARCA4-HiBiT engineered line)
Sequence (P51532 whole entry): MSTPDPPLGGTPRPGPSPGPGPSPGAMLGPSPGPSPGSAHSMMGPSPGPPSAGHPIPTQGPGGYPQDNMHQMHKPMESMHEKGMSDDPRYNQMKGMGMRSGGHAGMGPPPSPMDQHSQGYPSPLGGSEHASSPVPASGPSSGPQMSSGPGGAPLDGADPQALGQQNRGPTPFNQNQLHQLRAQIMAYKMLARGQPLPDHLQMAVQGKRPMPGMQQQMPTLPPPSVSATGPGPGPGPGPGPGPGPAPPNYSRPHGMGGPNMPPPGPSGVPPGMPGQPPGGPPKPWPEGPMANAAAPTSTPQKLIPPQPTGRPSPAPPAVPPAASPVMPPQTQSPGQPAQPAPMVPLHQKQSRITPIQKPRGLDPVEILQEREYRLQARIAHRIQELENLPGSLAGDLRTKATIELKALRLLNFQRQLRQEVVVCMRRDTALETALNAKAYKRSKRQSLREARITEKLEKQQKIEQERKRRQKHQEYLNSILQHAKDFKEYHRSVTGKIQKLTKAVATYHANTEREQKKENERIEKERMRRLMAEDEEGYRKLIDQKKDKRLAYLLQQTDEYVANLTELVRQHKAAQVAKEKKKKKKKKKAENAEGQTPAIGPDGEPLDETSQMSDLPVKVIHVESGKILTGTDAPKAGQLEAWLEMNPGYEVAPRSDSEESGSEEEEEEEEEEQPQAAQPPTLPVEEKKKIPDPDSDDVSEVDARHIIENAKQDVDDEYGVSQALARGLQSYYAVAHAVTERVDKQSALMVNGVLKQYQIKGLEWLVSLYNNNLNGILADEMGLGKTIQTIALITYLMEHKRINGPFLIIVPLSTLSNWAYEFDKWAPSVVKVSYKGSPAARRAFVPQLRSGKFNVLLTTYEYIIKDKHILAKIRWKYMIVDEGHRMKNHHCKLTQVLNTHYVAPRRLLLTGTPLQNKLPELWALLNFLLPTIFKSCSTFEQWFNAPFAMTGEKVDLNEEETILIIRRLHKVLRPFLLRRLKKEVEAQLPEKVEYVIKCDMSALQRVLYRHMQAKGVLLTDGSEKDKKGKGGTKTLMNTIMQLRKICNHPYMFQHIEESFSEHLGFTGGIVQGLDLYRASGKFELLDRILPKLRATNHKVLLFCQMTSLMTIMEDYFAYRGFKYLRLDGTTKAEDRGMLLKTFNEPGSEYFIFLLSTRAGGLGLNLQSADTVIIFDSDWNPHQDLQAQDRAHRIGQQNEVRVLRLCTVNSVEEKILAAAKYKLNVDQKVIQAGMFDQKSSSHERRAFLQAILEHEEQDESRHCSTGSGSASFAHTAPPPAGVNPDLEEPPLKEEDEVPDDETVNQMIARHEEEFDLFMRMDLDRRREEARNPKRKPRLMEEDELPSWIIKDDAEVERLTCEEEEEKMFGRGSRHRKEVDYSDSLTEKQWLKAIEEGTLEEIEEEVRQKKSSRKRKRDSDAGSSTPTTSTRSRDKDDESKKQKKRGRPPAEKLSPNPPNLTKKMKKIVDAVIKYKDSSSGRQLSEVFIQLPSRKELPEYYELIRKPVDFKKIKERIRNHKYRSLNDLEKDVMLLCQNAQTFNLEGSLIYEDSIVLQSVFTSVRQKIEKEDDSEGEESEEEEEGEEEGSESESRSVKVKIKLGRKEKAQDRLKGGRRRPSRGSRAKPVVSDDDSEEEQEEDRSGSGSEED
Assay: SMARCA4 degradation assay (HiBiT-fusion HeLa cell line, 24 h, luminescence)
Type: cell-based

Value lookup for DC50; key = `CN(C)CC#Cc1nccc(N2C3CC2CN(c2cc(-c4ccccc4O)nnc2N)C3)n1` 50 to 500 nM

Let us now turn to `C[C@@H]1CCN(c2cc(-c3ccccc3O)nnc2N)CCN1c1ccnc(C#CCN2CCCCC2)n1` < 50 nM

Let us now turn to Nc1nnc(-c2ccccc2O)cc1N1CCN(c2ccnc(C#CCNC(=O)C3COc4ccccc4O3)n2)CC1 (stereo not shown) 50 to 500 nM

Let us now turn to `Cc1c(C(=O)NC/C=C/c2nccc(N3CCCN(c4cc(-c5ccccc5O)nnc4N)CC3)n2)nn(C)c1C` 50 to 500 nM

Let us now turn to `Nc1nnc(-c2ccccc2O)cc1N1CCN(c2ccnc(C#CCNC(=O)c3noc4ccccc34)n2)CC1` 50 to 500 nM

Let us now turn to `Cc1nn2ccn(CC#Cc3nccc(N4C5CCC4CN(c4cc(-c6ccccc6O)nnc4N)C5)n3)c(=O)c2c1C` 50 to 500 nM

Let us now turn to `Nc1nnc(-c2ccccc2O)cc1N1CCCN(c2ccnc(C#CCNC(=O)NC3CC3)n2)CC1` 500 to 5000 nM

Let us now turn to `C[C@@H]1CCN(c2cc(-c3ccccc3O)nnc2N)CCN1c1ccc(C#N)c(C#CCN2CC(F)(F)[C@H]2C)n1` > 5000 nM

Let us now turn to `C[C@@H]1CCN(c2cc(-c3ccccc3O)nnc2N)CCN1c1nc(C#CCN(C)C)ncc1F` < 50 nM

Let us now turn to `CC(C)(C)OC(=O)NCC#Cc1nccc(N2CCC(Oc3cc(-c4ccccc4O)nnc3N)CC2)n1` 50 to 500 nM

Let us now turn to `C[C@@H]1CCN(c2cc(-c3ccccc3O)nnc2N)CCN1c1ccnc(C#CCN(C)C)c1` < 50 nM

Let us now turn to `COCc1cc(N2CCCN(c3cc(-c4ccccc4O)nnc3N)CC2)nc(C#CCNC(=O)c2cc3ncccn3n2)n1` 50 to 500 nM

Let us now turn to CC1CCN(c2ccnc(C#CCNC(=O)c3cc4ncccn4n3)n2)CCN1c1cc(-c2ccccc2O)nnc1N (stereo not shown) 500 to 5000 nM

* * *

Molecular target: SMARCA4-HiBiT HeLa cells (protein which is expressed from the SMARCA4 gene) (Homo sapiens)
Construct: protein which is expressed from the SMARCA2 and SMARCA4 genes; host or cells: HeLa (SMARCA4-HiBiT engineered line)
Assay: SMARCA4 degradation assay (HiBiT-fusion HeLa cell line, 24 h, luminescence)
Format: cell-based
Conditions: @ 1 μM
Recorded inhibition at 1 µM for the following molecules

Value lookup for inhibition at 1 µM; key = `Nc1nnc(-c2ccccc2O)cc1N1CCCN(c2ccnc(C#CCN3CCn4nccc4C3)n2)CC1` 30 to 70%

Let us now turn to `C[C@@H]1CN(CC#Cc2nccc(N3CCCN(c4cc(-c5ccccc5O)nnc4N)CC3)n2)C[C@@H](C)O1` < 30%

Let us now turn to `NC/C=C/c1nccc(N2CCCN(c3cc(-c4ccccc4O)nnc3N)CC2)n1` < 30%

Let us now turn to `Nc1nnc(-c2ccccc2O)cc1N1CC2CCC(C1)N2c1ccnc(C#CC2(NC(=O)c3cc4ncccn4n3)CC2)n1` 30 to 70%

Origin of measurements: patent US20260265238A1
